test system: Candida albicans; experiment: Antimicrobial activity against Candida albicans ATCC 10231 assessed as growth inhibition serial 2-fold dilution microtitre plate method; assay type: functional
measured_metric: MIC (µg/mL)
Give just the numeric value; µg/mL need not be written.

Here is how some compounds turned out for MIC.
1) COC(=O)/C=C/C(=O)NC[C@H](N)C(N)=O.Cl: 4
2) CNC(=O)[C@@H](N)CNC(=O)/C=C/C(=O)OC.Cl: 32

I'd like to know its MIC. The compound in question is COC(=O)/C=C/C(=O)NC[C@H](N)C(=O)N(C)C.Cl
512
